assay: Plasma levels of 9-deoxo-16,16-dimethyl-9-methylene-PGE2 by radioimmunoassay after insertion of a suppository; assay type: in vivo, Rhesus monkeys (Macaca mulatta); conditions: rhesus monkey, plasma, 30 mg, plasma; Monkey #9 (pregnant animal with uterine recording); 2 Hours; 30 mg Free Acid in H15 Plus 2% CSD Suppositories; read-out: Drug Levels
Experimental readout: concentration at 2 h (ng/mL)

Molecule: C=C1C[C@@H](O)[C@H](/C=C/[C@@H](O)C(C)(C)CCCC)[C@H]1C/C=C\CCCC(=O)O [Free Acid, 9-deoxo-16,16-dimethyl-9-methylene-PGE2]
Units label: ng/mL
Meas value: 62.9

====

experiment: Plasma levels of 9-deoxo-16,16-dimethyl-9-methylene-PGE2 by radioimmunoassay after insertion of a suppository; format: in vivo, Rhesus monkeys (Macaca mulatta); details: rhesus monkey, plasma, 30 mg, plasma; Monkey #14; 1 Hours; 30 mg Free Acid in H15 Plus 2% CSD + 10% Triacetin Suppositories; read-out: Drug Levels

Molecule: C=C1C[C@@H](O)[C@H](/C=C/[C@@H](O)C(C)(C)CCCC)[C@H]1C/C=C\CCCC(=O)O [Free Acid, 9-deoxo-16,16-dimethyl-9-methylene-PGE2]
concentration at 1 h / ng/mL: 25.1

====

assay: Plasma levels of 9-deoxo-16,16-dimethyl-9-methylene-PGE2 by radioimmunoassay after insertion of a suppository; assay type: in vivo, Rhesus monkeys (Macaca mulatta); settings: rhesus monkey, plasma, 30 mg, plasma; Monkey #16; 0.25 Hours; 30 mg Potassium Salt in H15 Plus 2% CSD + 10% Triacetin Suppositories; read-out: Drug Levels
Where a name gives a salt, the structure may show the parent alone.

Compound: C=C1C[C@@H](O)[C@H](/C=C/[C@@H](O)C(C)(C)CCCC)[C@H]1C/C=C\CCCC(=O)O [Potassium Salt]
Units label: ng/mL
concentration at 0.25 h: 7.45

====

experiment: Plasma levels of 9-deoxo-16,16-dimethyl-9-methylene-PGE2 by radioimmunoassay after insertion of a suppository; assay type: in vivo, Rhesus monkeys (Macaca mulatta); details: rhesus monkey, plasma, 30 mg, plasma; Monkey #8; 4 Hours; 30 mg Free Acid in H15 Plus 2% CSD Suppositories; read-out: Drug Levels
Experimental readout: concentration at 4 h

Compound: C=C1C[C@@H](O)[C@H](/C=C/[C@@H](O)C(C)(C)CCCC)[C@H]1C/C=C\CCCC(=O)O [Free Acid, 9-deoxo-16,16-dimethyl-9-methylene-PGE2]
Experimental readout: concentration at 4 h
Meas value: 12.4 ng/mL

====

test: Plasma levels of 9-deoxo-16,16-dimethyl-9-methylene-PGE2 by radioimmunoassay after insertion of a suppository; type: in vivo, Rhesus monkeys (Macaca mulatta); details: rhesus monkey, plasma, 30 mg, plasma; Monkey #14; 24 Hours; 30 mg Free Acid in H15 Plus 2% CSD + 10% Triacetin Suppositories; read-out: Drug Levels
Experimental readout: concentration at 24 h

Compound: C=C1C[C@@H](O)[C@H](/C=C/[C@@H](O)C(C)(C)CCCC)[C@H]1C/C=C\CCCC(=O)O [Free Acid, 9-deoxo-16,16-dimethyl-9-methylene-PGE2]
Meas value: 12.9 ng/mL

====

assay: Plasma levels of 9-deoxo-16,16-dimethyl-9-methylene-PGE2 by radioimmunoassay after insertion of a suppository; format: in vivo, Rhesus monkeys (Macaca mulatta); conditions: rhesus monkey, plasma, 30 mg, plasma; Monkey #16; 1.5 Hours; 30 mg Potassium Salt in H15 Plus 2% CSD + 10% Triacetin Suppositories; read-out: Drug Levels
Where a name gives a salt, the structure may show the parent alone.

Compound: C=C1C[C@@H](O)[C@H](/C=C/[C@@H](O)C(C)(C)CCCC)[C@H]1C/C=C\CCCC(=O)O [Potassium Salt]
concentration at 1.5 h (ng/mL): 19.9

====

Assay: Plasma levels of 9-deoxo-16,16-dimethyl-9-methylene-PGE2 by radioimmunoassay after insertion of a suppository
Type: in vivo, Rhesus monkeys (Macaca mulatta)
Conditions: rhesus monkey, plasma, 30 mg, plasma; Monkey #17; 1 Hours; 30 mg Potassium Salt in H15 Plus 2% CSD + 10% Triacetin Suppositories; read-out: Drug Levels
Experimental: A. Midtrimester pregnant female Rhesus monkeys (Macaca mulatta) are used. […] D. The plasma levels of 9-deoxo-16,16-d1methy1-9-methy1ene-PGE2 in monkeys treated with 6 formulations containing either 9-deoxo-16,16-dimethyl-9-methylene-PGE2 free acid or potassium salt are shown in Tables 1-6. In general, higher blood levels are measured in pregnant Rhesus monkeys than in non-pregnant monkeys.
Structures can show the parent of a compound that is named as a salt.
Experimental readout: concentration at 1 h (ng/mL)

Compound: C=C1C[C@@H](O)[C@H](/C=C/[C@@H](O)C(C)(C)CCCC)[C@H]1C/C=C\CCCC(=O)O [Potassium Salt]
Units label: ng/mL
Meas value: 1.27

====

experiment: Plasma levels of 9-deoxo-16,16-dimethyl-9-methylene-PGE2 by radioimmunoassay after insertion of a suppository; format: in vivo, Rhesus monkeys (Macaca mulatta); settings: rhesus monkey, plasma, 30 mg, plasma; Monkey #9 (pregnant animal with uterine recording); 0.5 Hours; 30 mg Free Acid in H15 Plus 2% CSD Suppositories; read-out: Drug Levels
Experimental readout: concentration at 0.5 h (ng/mL)

Compound: C=C1C[C@@H](O)[C@H](/C=C/[C@@H](O)C(C)(C)CCCC)[C@H]1C/C=C\CCCC(=O)O [Free Acid, 9-deoxo-16,16-dimethyl-9-methylene-PGE2]
Meas value: 52.2

====

experiment: Plasma levels of 9-deoxo-16,16-dimethyl-9-methylene-PGE2 by radioimmunoassay after insertion of a suppository; format: in vivo, Rhesus monkeys (Macaca mulatta); conditions: rhesus monkey, plasma, 30 mg, plasma; Monkey #16; 0.5 Hours; 30 mg Potassium Salt in H15 Plus 2% CSD + 10% Triacetin Suppositories; read-out: Drug Levels
Counter-ions that a name gives are not always drawn.
Experimental readout: concentration at 0.5 h

Molecule: C=C1C[C@@H](O)[C@H](/C=C/[C@@H](O)C(C)(C)CCCC)[C@H]1C/C=C\CCCC(=O)O [Potassium Salt]
Meas value: 7 ng/mL

====

test: Plasma levels of 9-deoxo-16,16-dimethyl-9-methylene-PGE2 by radioimmunoassay after insertion of a suppository; type: in vivo, Rhesus monkeys (Macaca mulatta); conditions: rhesus monkey, plasma, 30 mg, plasma; Monkey #9 (pregnant animal with uterine recording); 0.25 Hours; 30 mg Free Acid in H15 Plus 2% CSD Suppositories; read-out: Drug Levels
Experimental readout: concentration at 0.25 h

Molecule: C=C1C[C@@H](O)[C@H](/C=C/[C@@H](O)C(C)(C)CCCC)[C@H]1C/C=C\CCCC(=O)O [Free Acid, 9-deoxo-16,16-dimethyl-9-methylene-PGE2]
Meas value: 60.7 ng/mL

====

experiment: Plasma levels of 9-deoxo-16,16-dimethyl-9-methylene-PGE2 by radioimmunoassay after insertion of a suppository; type: in vivo, Rhesus monkeys (Macaca mulatta); settings: rhesus monkey, plasma, 30 mg, plasma; Monkey #4; 0.5 Hours; 30 mg Potassium Salt in H15 Suppositories; read-out: Drug Levels
Counter-ions that a name gives are not always drawn.
Experimental readout: concentration at 0.5 h (ng/mL)

Compound: C=C1C[C@@H](O)[C@H](/C=C/[C@@H](O)C(C)(C)CCCC)[C@H]1C/C=C\CCCC(=O)O [Potassium Salt]
Experimental readout: concentration at 0.5 h
Units label: ng/mL
Meas value: 3.72

====

experiment: Plasma levels of 9-deoxo-16,16-dimethyl-9-methylene-PGE2 by radioimmunoassay after insertion of a suppository; format: in vivo, Rhesus monkeys (Macaca mulatta); conditions: rhesus monkey, plasma, 30 mg, plasma; Monkey #13; 0.5 Hours; 30 mg Free Acid in H15 Plus 2% CSD + 10% Triacetin Suppositories; read-out: Drug Levels

Compound: C=C1C[C@@H](O)[C@H](/C=C/[C@@H](O)C(C)(C)CCCC)[C@H]1C/C=C\CCCC(=O)O [Free Acid, 9-deoxo-16,16-dimethyl-9-methylene-PGE2]
concentration at 0.5 h: 9.25 ng/mL

====

test: Plasma levels of 9-deoxo-16,16-dimethyl-9-methylene-PGE2 by radioimmunoassay after insertion of a suppository; format: in vivo, Rhesus monkeys (Macaca mulatta); conditions: rhesus monkey, plasma, 30 mg, plasma; Monkey #4; 4 Hours; 30 mg Potassium Salt in H15 Suppositories; read-out: Drug Levels
Structures can show the parent of a compound that is named as a salt.

Molecule: C=C1C[C@@H](O)[C@H](/C=C/[C@@H](O)C(C)(C)CCCC)[C@H]1C/C=C\CCCC(=O)O [Potassium Salt]
concentration at 4 h, ng/mL: 8.39

====

Experiment: Plasma levels of 9-deoxo-16,16-dimethyl-9-methylene-PGE2 by radioimmunoassay after insertion of a suppository
Format: in vivo, Rhesus monkeys (Macaca mulatta)
Conditions: rhesus monkey, plasma, 30 mg, plasma; Monkey #13; 2 Hours; 30 mg Free Acid in H15 Plus 2% CSD + 10% Triacetin Suppositories; read-out: Drug Levels
Procedure: A. Midtrimester pregnant female Rhesus monkeys (Macaca mulatta) are used. […] D. The plasma levels of 9-deoxo-16,16-d1methy1-9-methy1ene-PGE2 in monkeys treated with 6 formulations containing either 9-deoxo-16,16-dimethyl-9-methylene-PGE2 free acid or potassium salt are shown in Tables 1-6. In general, higher blood levels are measured in pregnant Rhesus monkeys than in non-pregnant monkeys.

Compound: C=C1C[C@@H](O)[C@H](/C=C/[C@@H](O)C(C)(C)CCCC)[C@H]1C/C=C\CCCC(=O)O [Free Acid, 9-deoxo-16,16-dimethyl-9-methylene-PGE2]
Units label: ng/mL
concentration at 2 h: 5.46
